- TARGET_SYSTEM: Rho-A (Homo sapiens, UniProt P61586)
- TEST_NAME: Ras GTP binding domain inhibition assay (labeled-GTP competition, cell-free)
- Set-up: made in house
- ASSAY_SETUP: without SOS, read-out: Rho-A: % inh.
Form field: inhibition at 20 µM (one value per entry).

Observe how each entry below is paired with its result.
COC1CCN(c2nc(-c3nccn3C)nc3sc(-c4ccn(C(C)C)n4)c(C)c23)C1 (racemic) ... 76 to 100%
COc1ccnc(Nc2nc(-c3nccn3C)nc3sc(-c4ccn(C(C)C)n4)c(C)c23)n1 ... 76 to 100%
COc1cc(Nc2nc(-c3nccn3C)nc3sc(-c4ccn(C(C)C)n4)c(C)c23)ncn1 ... 76 to 100%
Cc1c(-c2ccn(C(C)C)n2)sc2nc(-c3nccn3C)nc(N3CCC(COC(C)C)C3)c12 (racemic) ... 76 to 100%

Lab book: inhibition at 20 µM of CO[C@H]1CC[C@@H](Nc2nc(C(=O)N3CCOCC3)nc3sccc23)C1 (racemic) noted as 1 to 25%

Lab book: inhibition at 20 µM of `CO[C@H]1CC[C@@H](Nc2nc(-c3nccn3C)nc3sc(-c4ccn(C(C)C)n4)c(C)c23)CC1` noted as 51 to 75%

Lab book: inhibition at 20 µM of `CO[C@H]1C[C@H](Nc2nc(-c3nccn3C)nc3sc(-c4ccn(C(C)C)n4)c(C)c23)C[C@H]1OC` noted as 76 to 100%

---

- TARGET_SYSTEM: KRas Q61H mutant (Homo sapiens, UniProt P01116, Q61H)
- TEST_NAME: Ras GTP binding domain inhibition assay (labeled-GTP competition, cell-free)
- ASSAY_SETUP: with SOS
pIC50: −log10 of the molar value.
OBSERVATION_TYPE: pIC50

Observe how each entry below is paired with its result.
CO[C@H]1CC[C@@H](Nc2nc(-c3nccn3C)nc3sccc23)C1 (racemic) ... 5.00 to 5.30
O=C(c1nc(O)c2scc(-c3ccccn3)c2n1)N1CCOCC1 ... < 5.00
Cn1ccnc1-c1nc(O)c2scc(-c3ncccc3F)c2n1 ... 5.30 to 6.00
O=C(Nc1ccccc1)c1nc(O)c2scc(-c3ccccn3)c2n1 ... < 5.00
Cc1sc2c(O)nc(-c3ccccn3)nc2c1-c1ccccn1 ... 5.00 to 5.30
CO[C@H]1C[C@@H](Nc2nc(-c3nccn3C)nc3sc(-c4cn(C)cn4)c(-c4ccccc4)c23)C1 ... 5.30 to 6.00
COCCn1ccnc1-c1nc(N[C@@H]2CC[C@H](OC)C2)c2c(-c3ccccc3)c(-c3ccn(C)n3)sc2n1 (racemic) ... 5.30 to 6.00
CO[C@H]1CC[C@@H](Nc2nc(C(=O)N3CCOCC3)nc3sccc23)C1 (racemic) ... < 5.00

Lab book: pIC50 of CO[C@H]1CC[C@@H](Nc2nc(C(=O)Nc3ccccn3)nc3sccc23)C1 (racemic) noted as < 5.00

Lab book: pIC50 of CO[C@H]1CC[C@@H](Nc2nc(C(=O)Nc3ccccc3)nc3sccc23)C1 (racemic) noted as < 5.00

Lab book: pIC50 of `CC(C)NC(=O)c1nc(O)c2scc(-c3ccccn3)c2n1` noted as < 5.00

---

- TARGET_SYSTEM: Rho-A (Homo sapiens, UniProt P61586)
- TEST_NAME: Ras GTP binding domain inhibition assay (labeled-GTP competition, cell-free)
- Parameters: made in house
- ASSAY_SETUP: without SOS, read-out: Rho-A: % inh.
Form field: inhibition at 20 µM (one value per entry).

Observe how each entry below is paired with its result.
COCC1CN(c2nc(-c3nccn3C)nc3sc(-c4ccn(C(C)C)n4)c(C)c23)CCO1 (racemic) ... 76 to 100%
CO[C@H]1CC[C@@H](Nc2nc(-c3nccn3C)nc3sc(-c4ccn(C(C)C)n4)c(-c4ccccc4)c23)C1 ... 51 to 75%
Cc1c(-c2ccn(C(C)C)n2)sc2nc(-c3nccn3C)nc(NCCc3nnn[nH]3)c12 ... 76 to 100%
Oc1nc(-c2ccncn2)nc2c(-c3ccccn3)csc12 ... 51 to 75%
O=C(Nc1ccccc1)c1nc(O)c2scc(-c3ccccn3)c2n1 ... 1 to 25%

Lab book: inhibition at 20 µM of COCCNC(=O)c1nc(N[C@@H]2CC[C@H](OC)C2)c2ccsc2n1 (racemic) noted as 1 to 25%

Lab book: inhibition at 20 µM of Cc1c(-c2ccn(C(C)C)n2)sc2nc(-c3ccccn3)nc(N3CCC(COC(C)C)C3)c12 (stereo not shown) noted as 1 to 25%

Lab book: inhibition at 20 µM of `O=C(Nc1ccccn1)c1nc(O)c2scc(-c3ccccn3)c2n1` noted as 1 to 25%

Lab book: inhibition at 20 µM of `CO[C@H]1C[C@@H](Nc2nc(-c3nccn3C)nc3sc(-c4ccn(C(C)C)n4)c(C)c23)C[C@H]1OC` noted as 51 to 75%

Lab book: inhibition at 20 µM of `CO[C@H]1C[C@@H](Nc2nc(-c3nccn3C)nc3sc(-c4ccn(C(C)C)n4)c(C)c23)C1` noted as 0%

Lab book: inhibition at 20 µM of `COc1ccn2c(-c3nc(O)c4scc(-c5ccccn5)c4n3)ncc2c1` noted as 51 to 75%

Lab book: inhibition at 20 µM of `NC(=O)c1nc(O)c2scc(-c3ccccn3)c2n1` noted as 26 to 50%

Lab book: inhibition at 20 µM of COCCn1ccnc1-c1nc(N[C@@H]2CC[C@H](OC)C2)c2c(-c3ccccc3)c(-c3ccn(C)n3)sc2n1 (racemic) noted as 76 to 100%

Lab book: inhibition at 20 µM of CO[C@H]1CC[C@@H](Nc2nc(C(N)=O)nc3sc(-c4ccn(C(C)C)n4)cc23)C1 (racemic) noted as 26 to 50%

Lab book: inhibition at 20 µM of `Cc1cnc(-c2nc(O)c3scc(-c4ccccn4)c3n2)s1` noted as 76 to 100%

Lab book: inhibition at 20 µM of COC1CCCN(c2nc(-c3nccn3C)nc3sc(-c4ccn(C(C)C)n4)c(-c4ccccc4)c23)C1 (racemic) noted as 26 to 50%

---

- System: Akt phosphorylation in Panc-1 cells
- TEST_NAME: Western AKT cell-based phosphorylation assay
- Set-up: species or system human
- ASSAY_SETUP: at 10 μM, values in brackets < > are activation %, not inhibition
- Procedure: Human Tumor-Derived Pancreatic Cancer Cell Line Panc-1 was Purchased from […] Method: Cells were plated at 350000 cells/well density in a 12-well plate, allowed 3 hours to adhere to the plate, then starved in the appropriate medium in the presence of 0.5% FBS overnight. […] Protein concentration was assessed by BCA protein assay (Thermo Scientific). Phosphorylation level of Akt was determined by western blot. […]
OBSERVATION_TYPE: % inh of AKT phosphorylation in PANC-1

Observe how each entry below is paired with its result.
CO[C@H]1CC[C@@H](Nc2nc(-c3nccn3C)nc3sc(-c4ccn(C(C)C)n4)c(C)c23)C1 ... 0 (0% inhibition)
COc1ccnc(Nc2nc(-c3nccn3C)nc3sc(-c4ccn(C(C)C)n4)c(C)c23)n1 ... <A>
COc1cc(Nc2nc(-c3nccn3C)nc3sc(-c4ccn(C(C)C)n4)c(C)c23)ccn1 ... <A>
CO[C@H]1CCCN(c2nc(-c3nccn3C)nc3sc(-c4ccn(C(C)C)n4)c(C)c23)C1 ... D (76-100% inhibition)
CO[C@@H]1CCCN(c2nc(-c3nccn3C)nc3sc(-c4ccn(C(C)C)n4)c(C)c23)C1 ... D (76-100% inhibition)
COCCn1ccnc1-c1nc(N[C@H]2C[C@@H](OC)C2)c2c(-c3ccccc3)c(-c3ccn(C)n3)sc2n1 ... 0 (0% inhibition)
CO[C@H]1CC[C@@H](Nc2nc(-c3nccn3C)nc3sc(-c4ccn(C(C)C)n4)c(-c4ccccc4)c23)C1 ... D (76-100% inhibition)
CO[C@@H]1CC[C@@H](Nc2nc(-c3nccn3C)nc3sc(-c4ccn(C(C)C)n4)c(C)c23)C1 (racemic) ... 0 (0% inhibition)

Lab book: % inh of AKT phosphorylation in PANC-1 of `O=C(Nc1ccccn1)c1nc(O)c2scc(-c3ccccn3)c2n1` noted as 0 (0% inhibition)

Lab book: % inh of AKT phosphorylation in PANC-1 of CO[C@H]1CC[C@@H](Nc2nc(C(=O)NC(C)C)nc3sccc23)C1 (racemic) noted as 0 (0% inhibition)

Lab book: % inh of AKT phosphorylation in PANC-1 of `COCCCn1ccnc1-c1nc(O)c2scc(-c3ccccn3)c2n1` noted as <B>

Lab book: % inh of AKT phosphorylation in PANC-1 of `Oc1nc(-c2nccn2CCOCc2ccccc2)nc2c(-c3ccccn3)csc12` noted as <D>

Lab book: % inh of AKT phosphorylation in PANC-1 of CO[C@H]1CC[C@@H](Nc2nc(-c3ccccn3)nc3sc(-c4ccn(C(C)C)n4)c(C)c23)C1 (racemic) noted as D (76-100% inhibition)

Lab book: % inh of AKT phosphorylation in PANC-1 of CO[C@H]1CC[C@@H](Nc2nc(-c3nccn3C)nc3sc(-c4cc[nH]n4)c(-c4ccccc4)c23)C1 (racemic) noted as 0 (0% inhibition)

Lab book: % inh of AKT phosphorylation in PANC-1 of COC1CCN(c2nc(-c3nccn3C)nc3sc(-c4ccn(C(C)C)n4)c(C)c23)C1 (racemic) noted as 0 (0% inhibition)

Data origin, for the record: patent US20230227466A1
